Could you please report measured Emax for the items listed next?
target: Human recombinant PDE3A (hPDE3A) (Homo sapiens, UniProt Q14432); construct: purchased Scottish Biomedical; host or cells: Sf9 insect cells; test: In vitro assay PDE3A (SPA, 3H-cAMP hydrolysis); assay type: biochemical; settings: read-out: hPDE3B Emax; read-out: Emax;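 further: the method names PDE3A and the table heading PDE3B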
Sequence (Q14432 whole entry): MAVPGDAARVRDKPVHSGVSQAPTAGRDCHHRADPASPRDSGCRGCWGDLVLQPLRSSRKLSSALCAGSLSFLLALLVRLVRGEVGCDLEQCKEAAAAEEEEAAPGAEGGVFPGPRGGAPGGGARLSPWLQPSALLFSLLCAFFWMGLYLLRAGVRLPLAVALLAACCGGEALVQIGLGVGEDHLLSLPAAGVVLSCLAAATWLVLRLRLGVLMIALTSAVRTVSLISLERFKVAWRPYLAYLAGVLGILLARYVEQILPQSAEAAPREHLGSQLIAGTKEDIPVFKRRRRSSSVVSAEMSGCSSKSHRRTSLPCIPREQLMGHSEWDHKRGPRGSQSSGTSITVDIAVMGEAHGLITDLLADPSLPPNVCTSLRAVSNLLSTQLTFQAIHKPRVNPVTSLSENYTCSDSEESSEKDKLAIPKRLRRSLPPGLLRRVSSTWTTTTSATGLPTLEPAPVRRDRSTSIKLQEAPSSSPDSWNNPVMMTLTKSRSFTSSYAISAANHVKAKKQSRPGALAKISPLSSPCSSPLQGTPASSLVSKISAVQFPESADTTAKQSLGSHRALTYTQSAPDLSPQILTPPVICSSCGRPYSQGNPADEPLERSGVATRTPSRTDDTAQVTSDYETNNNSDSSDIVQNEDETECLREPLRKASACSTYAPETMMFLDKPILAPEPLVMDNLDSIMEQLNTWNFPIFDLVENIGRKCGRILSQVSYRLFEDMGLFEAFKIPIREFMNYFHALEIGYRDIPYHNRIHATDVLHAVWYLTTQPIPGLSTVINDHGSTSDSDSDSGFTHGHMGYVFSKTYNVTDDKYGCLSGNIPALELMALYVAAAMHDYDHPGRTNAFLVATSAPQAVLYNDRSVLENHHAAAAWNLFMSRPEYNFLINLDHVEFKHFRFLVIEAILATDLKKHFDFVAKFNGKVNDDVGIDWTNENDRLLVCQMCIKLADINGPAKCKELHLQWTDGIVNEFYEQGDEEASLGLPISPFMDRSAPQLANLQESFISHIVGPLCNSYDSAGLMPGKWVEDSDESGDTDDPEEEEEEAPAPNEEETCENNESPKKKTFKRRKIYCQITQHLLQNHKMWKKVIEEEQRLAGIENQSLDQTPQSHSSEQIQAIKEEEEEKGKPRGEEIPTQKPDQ
The answer is to be given in %; state only the numeric part.

# get_value(readout='Emax', item= COc1c(C)cc(C(=O)N2CC[C@@H](C)[C@](F)(c3cc(C(F)F)nc4ncnn34)C2)cc1C [Compound 74] )
30

Can you check Cc1csc(C(=O)N2[C@H]3CC[C@H](c4cc(C(F)F)nc5ncnn45)[C@@H]2CC3)c1 [Compound 347] next?
63

Can you check Cc1cc([C@@H]2CC[C@@H]3CC[C@H]2N3C(=O)c2ccc3ncsc3c2)n2ncnc2n1 [Compound 230] next?
40

Can you check COc1cccc2c1OCC(C(=O)N1CC[C@@H](C)[C@H](c3cc(C(F)F)nc4ncnn34)C1)=C2 [Compound 267] next?
100

----------
biological target: Human recombinant PDE2A (hPDE2A) (Homo sapiens); construct: His tag (inferred from metal chelate purification); made in house; host or cells: Sf9 insect cells (baculovirus); assay: In vitro assay PDE2A (SPA, 3H-cGMP hydrolysis); assay type: biochemical; conditions: read-out: hPDE2A pIC50 (converted)
Could you please report measured IC50 for the items listed next?
The answer is to be given in nM; state only the numeric part.

# get_value(readout='IC50', item= O=C(c1cnc2ccccc2c1)N1[C@H]2CC[C@H](c3cc(C(F)F)nc4ncnn34)[C@@H]1CC2 [Compound 313] )
1.35

Can you check C[C@@H]1CCN(C(=O)c2ccc(N)nc2)C[C@H]1c1cc(C(F)F)nc2ncnn12 [Compound 181] next?
4.57

Can you check Cc1cc(C(=O)N2CC[C@@H](C)[C@H](c3cc(C(F)F)nc4ncnn34)C2)cc(C(C)C)n1 [Compound 101] next?
0.661

----------
Could you please report measured IC50 for the items listed next?
biological target: Human recombinant PDE3A (hPDE3A) (Homo sapiens, UniProt Q14432); construct: purchased Scottish Biomedical; host or cells: Sf9 insect cells; assay: In vitro assay PDE3A (SPA, 3H-cAMP hydrolysis); format: biochemical; details: hPDE3B pIC50; read-out: pIC50 (converted);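 further: the method names PDE3A and the table heading PDE3B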
The answer is to be given in nM; state only the numeric part.

# get_value(readout='IC50', item= Cc1cc(C(=O)N2CC[C@@H](C)[C@H](c3cc(C)nc4ncnn34)C2)cc(C2CC2)n1 )
1050

Can you check Cc1ccc2cc(C(=O)N3CC[C@@H](C)[C@H](c4cc(C(F)F)nc5ncnn45)C3)c(C)nc2c1 next?
1100

Can you check Cc1cc([C@@H]2CN(C(=O)c3ccc4occc4c3)CC[C@H]2C)n2ncnc2n1 next?
676

Can you check Cc1cc([C@@H]2CN(C(=O)c3ccc4nccn4c3)CC[C@H]2C)n2ncnc2n1 next?
2090

Can you check COc1cc(C(=O)N2CC[C@@H](C)[C@H](c3cc(C(F)F)nc4ncnn34)C2)ccc1C1CC1 next?
955

Can you check COc1ncc(C(=O)N2CC[C@@H](C)[C@H](c3cc(C(F)F)nc4ncnn34)C2)cc1C1CC1 next?
2630

Can you check C[C@@H]1CCN(C(=O)c2ccc(C(F)(F)F)nc2Cl)C[C@H]1c1cc(C(F)F)nc2ncnn12 next?
6170

----------
target: Human recombinant PDE3A (hPDE3A) (Homo sapiens); construct: purchased Scottish Biomedical; host or cells: Sf9 insect cells; experiment: In vitro assay PDE3A (SPA, 3H-cAMP hydrolysis); type: biochemical; details: read-out: hPDE3B Emax; read-out: Emax
Could you please report measured Emax for the items listed next?
The answer is to be given in %; state only the numeric part.

# get_value(readout='Emax', item= Cn1ncc2cc(C(=O)N3[C@H]4CC[C@H](c5cc(C(F)F)nc6ncnn56)[C@@H]3CC4)ccc21 [Compound 380] )
72

Can you check CCCC[C@@H]1CCN(C(=O)c2cc(C)nc(C)c2)C[C@H]1c1cc(C(F)F)nc2ncnn12 (mixture of isomers) [Compound 44] next?
39

Can you check O=C(c1ccc(Cl)s1)N1[C@H]2CC[C@H](c3cc(C(F)F)nc4ncnn34)[C@@H]1CC2 [Compound 351] next?
69

Can you check CC(=O)N1CCc2cc(C(=O)N3CCC[C@@](C)(c4cc(C(F)F)nc5ncnn45)C3)ccc21 (single isomer, unassigned) [Compound 203] next?
41

Can you check C[C@@H]1CCN(C(=O)c2cc(F)cc(C#N)c2)C[C@H]1c1cc(C(F)F)nc2ncnn12 [Compound 190] next?
39

----------
target: Human recombinant PDE2A (hPDE2A) (Homo sapiens, UniProt O00408); construct: His tag (inferred from metal chelate purification); made in house; host or cells: Sf9 insect cells (baculovirus); test: In vitro assay PDE2A (SPA, 3H-cGMP hydrolysis); type: biochemical; details: read-out: hPDE2A pIC50 (converted)
Sequence (O00408 whole entry): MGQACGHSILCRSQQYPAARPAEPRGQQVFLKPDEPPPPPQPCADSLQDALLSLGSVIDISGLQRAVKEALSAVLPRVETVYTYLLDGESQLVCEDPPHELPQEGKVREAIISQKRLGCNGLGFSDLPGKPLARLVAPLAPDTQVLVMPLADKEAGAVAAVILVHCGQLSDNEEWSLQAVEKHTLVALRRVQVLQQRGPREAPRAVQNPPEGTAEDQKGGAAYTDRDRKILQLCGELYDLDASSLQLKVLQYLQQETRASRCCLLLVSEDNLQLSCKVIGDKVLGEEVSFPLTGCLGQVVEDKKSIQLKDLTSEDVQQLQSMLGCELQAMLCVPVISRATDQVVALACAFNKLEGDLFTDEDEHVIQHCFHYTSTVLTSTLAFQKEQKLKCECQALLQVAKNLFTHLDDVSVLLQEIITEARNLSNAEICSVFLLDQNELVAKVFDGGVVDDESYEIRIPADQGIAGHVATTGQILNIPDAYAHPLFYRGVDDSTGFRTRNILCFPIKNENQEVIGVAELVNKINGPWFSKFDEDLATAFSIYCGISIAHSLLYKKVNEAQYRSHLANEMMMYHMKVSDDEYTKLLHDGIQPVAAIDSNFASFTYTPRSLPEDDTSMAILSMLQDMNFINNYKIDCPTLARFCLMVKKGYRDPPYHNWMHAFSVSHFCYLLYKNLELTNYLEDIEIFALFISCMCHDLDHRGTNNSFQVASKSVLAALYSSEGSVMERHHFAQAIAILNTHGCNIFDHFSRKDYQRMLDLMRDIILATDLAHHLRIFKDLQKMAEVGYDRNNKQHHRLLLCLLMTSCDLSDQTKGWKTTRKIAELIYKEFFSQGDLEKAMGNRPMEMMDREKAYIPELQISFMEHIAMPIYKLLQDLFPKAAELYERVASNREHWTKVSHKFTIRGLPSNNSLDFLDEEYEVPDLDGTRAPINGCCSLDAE
Label Satisfied when IC50 < 3 nM; otherwise Not satisfied.

In plain terms, does Cc1cc(C(=O)N2CCC[C@](C)(c3cc(C(F)F)nc4ncnn34)C2)cc(C)n1 (single isomer, unassigned) come in under 3 nM for IC50?
Not satisfied

Can you check Cc1c(C(=O)N2[C@H]3CC[C@@H]2[C@H](c2cc(C(F)F)nc4ncnn24)CC3)oc2ccccc12 next?
Not satisfied

Can you check C[C@@H]1CCN(C(=O)c2ccc3c(ccn3C)c2)C[C@H]1c1cc(C(F)F)nc2ncnn12 next?
Satisfied

Can you check C[C@@H]1CCN(C(=O)c2ccc(F)c(C3CC3)c2)C[C@H]1c1cc(C(F)F)nc2ncnn12 next?
Not satisfied

Can you check C[C@@H]1CCN(C(=O)c2ccnc(Cl)c2F)C[C@H]1c1cc(C(F)F)nc2ncnn12 next?
Not satisfied

Can you check C[C@@H]1CCN(C(=O)c2ccnn2C)C[C@H]1c1cc(C(F)F)nc2ncnn12 next?
Not satisfied

Can you check C[C@@H]1CCN(C(=O)c2ccc3cc[nH]c3c2)C[C@H]1c1cc(C(F)F)nc2ncnn12 next?
Satisfied

Can you check Cc1cccnc1C(=O)N1CC[C@@H](C)[C@H](c2cc(C(F)F)nc3ncnn23)C1 next?
Not satisfied

Can you check Cc1cc([C@@H]2CN(C(=O)c3cc4c(nc3Cl)CCCC4)CC[C@H]2C)n2ncnc2n1 next?
Not satisfied

Can you check C[C@]1(c2cc(C(F)F)nc3ncnn23)CCCN(C(=O)c2ccc3occc3c2)C1 (single isomer, unassigned) next?
Not satisfied

Can you check CN1CCOc2cc(C(=O)N3[C@H]4CC[C@H](c5cc(C(F)F)nc6ncnn56)[C@@H]3CC4)ccc21 next?
Satisfied

----------
biological target: Human recombinant PDE10A (hPDE10A) (Homo sapiens); construct: His tag (inferred from metal chelate purification); made in house; host or cells: Sf9 insect cells (baculovirus); experiment: In vitro assay PDE10A, human clone (SPA, 3H-cAMP hydrolysis); assay type: biochemical; settings: human clone (h), default; read-out: hPDE10A2 Emax
Sequence (Q9Y233 267-1055): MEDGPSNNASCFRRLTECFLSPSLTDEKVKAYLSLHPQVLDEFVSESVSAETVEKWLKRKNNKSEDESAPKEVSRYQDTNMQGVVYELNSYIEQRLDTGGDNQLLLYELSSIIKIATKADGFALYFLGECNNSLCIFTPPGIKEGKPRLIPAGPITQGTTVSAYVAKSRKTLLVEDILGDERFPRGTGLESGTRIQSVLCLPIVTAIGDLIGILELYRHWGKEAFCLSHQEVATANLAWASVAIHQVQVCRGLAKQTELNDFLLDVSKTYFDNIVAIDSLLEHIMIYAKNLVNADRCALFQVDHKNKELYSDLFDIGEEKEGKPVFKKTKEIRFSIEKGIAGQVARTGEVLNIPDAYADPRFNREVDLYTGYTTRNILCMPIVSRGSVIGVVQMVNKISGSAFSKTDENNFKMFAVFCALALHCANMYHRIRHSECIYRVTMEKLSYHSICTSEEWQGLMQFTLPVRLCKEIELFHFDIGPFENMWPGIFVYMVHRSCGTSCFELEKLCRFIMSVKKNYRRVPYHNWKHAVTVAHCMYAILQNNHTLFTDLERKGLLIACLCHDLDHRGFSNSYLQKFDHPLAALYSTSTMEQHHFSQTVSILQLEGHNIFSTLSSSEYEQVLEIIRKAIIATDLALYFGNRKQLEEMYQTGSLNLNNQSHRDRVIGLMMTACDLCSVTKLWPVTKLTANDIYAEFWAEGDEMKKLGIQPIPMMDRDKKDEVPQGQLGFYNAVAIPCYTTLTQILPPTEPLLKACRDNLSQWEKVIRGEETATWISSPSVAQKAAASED
Could you please report measured Emax for the items listed next?
The answer is to be given in %; state only the numeric part.

# get_value(readout='Emax', item= Cc1cc([C@@H]2CN(C(=O)c3cc4ccccc4o3)CC[C@H]2C)n2ncnc2n1 )
100

Can you check Cc1c(C(=O)N2CC[C@@H](C)[C@H](c3cc(C(F)F)nc4ncnn34)C2)sc2ccccc12 next?
99

Can you check Cc1cc([C@@H]2CN(C(=O)c3cc(C)c(Cl)c(C)c3)CC[C@H]2C)n2ncnc2n1 next?
99

Can you check COc1ccc2c(c1)cc(C(=O)N1CC[C@@H](C)[C@H](c3cc(C(F)F)nc4ncnn34)C1)n2C next?
100

Can you check Cc1cc([C@@H]2CN(C(=O)c3ccnc(Cl)c3F)CC[C@H]2C)n2ncnc2n1 next?
95

Can you check Cc1cc([C@@H]2CN(C(=O)c3ccnc(Cl)c3)CC[C@H]2C)n2ncnc2n1 next?
97

Can you check Cc1cc([C@@H]2CN(C(=O)c3cc(Cl)ncc3Cl)CC[C@H]2C)n2ncnc2n1 next?
95

Can you check C[C@@H]1CCN(C(=O)c2ccc(C3CC3)c(F)c2)C[C@H]1c1cc(C(F)F)nc2ncnn12 next?
100

Can you check Cc1cc([C@@H]2CN(C(=O)c3cc(C)c(C)cn3)CC[C@H]2C)n2ncnc2n1 next?
93

Can you check Cc1csc(C(=O)N2CC[C@@H](C)[C@H](c3cc(C(F)F)nc4ncnn34)C2)c1Cl next?
90

Can you check Cc1cnc(Cl)cc1C(=O)N1CC[C@@H](C)[C@H](c2cc(C(F)F)nc3ncnn23)C1 next?
88

Can you check C[C@@H]1CCN(C(=O)c2cc3n(n2)CCO3)C[C@H]1c1cc(C(F)F)nc2ncnn12 next?
81

Can you check C[C@@H]1CCN(C(=O)c2cnc(O)c(Cl)c2)C[C@H]1c1cc(C(F)F)nc2ncnn12 next?
96

Can you check C[C@@H]1CCN(C(=O)c2c(F)cccc2F)C[C@H]1c1cc(C(F)F)nc2ncnn12 next?
83

Can you check C[C@@H]1CCN(C(=O)c2cccc(C#N)c2)C[C@H]1c1cc(C(F)F)nc2ncnn12 next?
96
